Please go through the items and note down their TGI.
test system: HS 578T breast; assay: NCI tumour cell line growth inhibition, 48 h
Answers are plain numbers, in µM.

• C[C@]1(O)O[C@@H]2OCC[C@@H]2C2=C1C(=O)c1ccccc1C2=O = 82.4

Need TGI for each of these compounds.
1. C=CCCCCCCCCCOC1C=CC(OC(C)=O)C(COC(C)=O)O1 (stereo unspecified)
2. Fc1ccc2[nH]cc(SSc3c[nH]c4ccc(F)cc34)c2c1

[reply]
[63, 31.1]

###

test system: MDA-MB-231 breast; test: NCI tumour cell line growth inhibition, 48 h
Please go through the items and note down their TGI.

Answered examples (4):
* CC1(CC2=C(C(=O)NCCO[Si](C)(C)C(C)(C)C)C3(OCCO3)C2=O)OCCO1 | > 100 µM
* Nc1nc(-c2cccc([N+](=O)[O-])c2)cc(-c2cc(-c3cccc([N+](=O)[O-])c3)nc(N)n2)n1 | > 100 µM
* C/C(=N\N=C(N)N)C(CN(C)C)C(c1ccccc1)c1c(O)c2ccccc2oc1=O (stereo not drawn) | > 100 µM
* CSCCC(NC(=O)OCc1ccccc1)NC(=O)OCc1ccccc1 | > 100 µM

Need TGI for each of these compounds.
1. C[C@H](N)C(=O)N1C[C@H](CCCB(O)O)[C@](N)(C(=O)O)C1
2. N#Cc1ccc2c(c1)C(=O)c1c-2n(CCCN)c(=O)c2cc([N+](=O)[O-])ccc12
3. O=C1CS/C(=N\S(=O)(=O)c2ccc(N3N=C4c5ccccc5CC4C3c3ccc(Cl)cc3)cc2)N1c1ccccc1 (stereo not drawn)
4. COc1cc2c(cc1OC)-c1cc3cc(OC)c(OC)cc3c(=O)n1CC2
5. CC(=O)OCC1OC(O/C=C(\CN=[N+]=[N-])C(C)=O)C(OC(C)=O)C(OC(C)=O)C1OC(C)=O (stereo not drawn)
6. COc1cc(OC)c(C(=O)/C=C/c2cccc(OC(C)=O)c2)cc1CC=C(C)C
7. COc1cc(/C=C2\C(=O)Nc3cccc(Cl)c32)cc(OC)c1OC
8. COC(=O)c1ccccc1C1CN=NC12Cc1cccc(C)c1C2=O (stereo not drawn)

[reply]
> 100 µM
3.04 µM
> 100 µM
> 70.4 µM
27.7 µM
> 50 µM
> 100 µM
> 100 µM

Need TGI for each of these compounds.
1. CC(=O)/C=C(\O)c1[nH]c(C(=O)O)cc1C1CCN(Cc2ccccc2)C1=O (stereo not drawn)
2. CC(=O)N1c2ccccc2C(C)C1c1[nH]c2ccccc2c1C (stereo not drawn)
3. CC1(C)CC(Nc2ccc(Nc3ccccc3)cc2)CC(C)(C)N1
4. N#Cc1ccc(Oc2nc3ccc(C(F)(F)F)cc3nc2-c2ccccc2)cc1
5. CC(=O)O[C@H]1[C@@H](OC(C)=O)C(C)(C)/C=C/[C@H](C)C(=O)[C@@]2(OC(C)=O)C[C@@](C)(OC(C)=O)[C@H](OC(C)=O)[C@@H]2[C@H]2OC(=O)CC[C@@]2(OC(=O)c2ccccc2)[C@@H]1OCC(C)C
6. N=c1c2c(=S)n(-c3ccccc3)c(=S)n(-c3ccccc3)c2nc(SCCN2CCOCC2)n1-c1ccccc1
7. Cc1c(N=Cc2ccc(N(CCC#N)CCC#N)cc2)c(=O)n(-c2ccccc2)n1C
8. C=CCN(c1cc(OC)c2[nH]cc(C)c2c1[N+](=O)[O-])S(C)(=O)=O

[reply]
> 100 µM
53.5 µM
32.4 µM
36.8 µM
> 100 µM
4.73 µM
> 100 µM
> 100 µM

Need TGI for each of these compounds.
1. COc1ccc(Oc2nc(C#CC(C)(C)O)nc(Oc3ccc(OC)cc3)n2)cc1
2. c1ccc(C(CCN2CC3CCC(CC3)C2)c2ccccc2)cc1
3. CC1(C)CCC(=O)NC1CC(=O)CC1NC(=O)CCC1(C)C (stereo not drawn)

[reply]
["9.93 µM", "38.3 µM", "> 100 µM"]

###

system: SK-OV-3 ovarian; assay: NCI tumour cell line growth inhibition, 48 h
Measured Parameter: TGI

Answered examples (3):
• COc1cc(Nc2nc3ccc(C(F)(F)F)cc3nc2-c2ccccc2)cc(OC)c1OC = > 100 µM
• Nc1ncnc2c1cnn2Cc1ccc(Cl)cc1 = > 100 µM
• COc1ccccc1-c1cc(=O)c2ccc(OC)c(OC)c2o1 = > 100 µM

Need TGI for each of these molecules.
1. CC(=O)OCC1=C(C)C[C@H]([C@@H](COC(C)=O)C2CCC3C4C[C@H]5O[C@]56CC=CC(=O)[C@]6(C)C4CC[C@@]32C)OC1=O (stereo partly drawn)
2. CCOP(=O)(OCC)C1=NC=CC=CC1n1c(-c2ccccc2)nn(CC)c1=O (stereo not drawn)
3. CSc1ncnc2c1CCN2
4. COC(=O)[C@H](Cc1ccccc1)NP(=O)(O)OCC1C=CC(n2cc(C)c(=O)[nH]c2=O)O1 (stereo partly drawn)
5. N#C/C(=C\c1ccc(C(O)P(=O)(O)O)cc1)C(N)=O (stereo not drawn)
6. COc1cc(OC)c(C(=O)/C=C/c2cccc(OC(C)=O)c2)cc1CC=C(C)C
7. O=C(Nc1cccc(-n2cc(-c3ccncc3)c(-c3ccc(O)c(Cl)c3)n2)c1)Nc1cccc(C(F)(F)F)c1
8. O=C(COc1cccc(/C=C2\CSc3ccccc3C2=O)c1)c1ccc(Cl)cc1

[reply]
1. 6.93 µM
2. > 100 µM
3. > 100 µM
4. > 100 µM
5. > 100 µM
6. 28.2 µM
7. 23.1 µM
8. 41.9 µM

Need TGI for each of these molecules.
1. CCOC(=O)Nc1nc2c(C)cccc2s1
2. COc1cc2c(cc1OCCCC(=O)Nc1cc(C(=O)NCCCN(C)C)n(C)n1)N=CC1CCCN1C2=O (stereo not drawn)

[reply]
1. > 100 µM
2. > 62.3 µM

###

test system: U251 CNS; assay: NCI tumour cell line growth inhibition, 48 h
Please go through the items and note down their TGI.

Answered examples (2):
• N#CC1C2CCC3(CC2CCN1C(=O)c1ccccc1)OCCO3 (stereo not drawn) = > 100 µM
• CC[C@@]12C=CC(=S)N(CCSc3ccccc3)[C@@H]1c1c(n(S(=O)(=O)c3ccc(OC)cc3)c3ccccc13)CC2 = > 100 µM

Moving on to the next compound.
[ask] What measured TGI goes with CC(=O)Oc1ccc(/C=C/C(=O)O[C@H]2CCCC[C@@H]2OC(=O)/C=C/c2ccc(OC(C)=O)c(OC(C)=O)c2)cc1OC(C)=O ?
[reply] > 100 µM

###

tested on: A498 renal; experiment: NCI tumour cell line growth inhibition, 48 h
Please go through the items and note down their TGI.

Answered examples (3):
• C=CCn1cc(C(=O)NC(=O)NCCCCCOC(=O)CCCCCCCCCCC(=O)OCCCCCNC(=O)NC(=O)c2cn(CC=C)c(=O)n(C)c2=O)c(=O)n(C)c1=O = > 100 µM
• COc1cc(Nc2nc3ccc(C(F)(F)F)cc3nc2-c2ccccc2)cc(OC)c1OC = 78 µM
• Cc1c(N=Cc2ccc(N(CCC#N)CCC#N)cc2)c(=O)n(-c2ccccc2)n1C = > 100 µM

Need TGI for each of these compounds.
1. O=C(COc1cccc(/C=C2\CSc3ccccc3C2=O)c1)c1ccc(Cl)cc1
2. NC(=O)c1nnsc1NC=O
3. COc1ccccc1-c1cc(=O)c2ccc(OC)c(OC)c2o1

[reply]
1: 8.69 µM; 2: > 100 µM; 3: > 100 µM

Need TGI for each of these compounds.
1. NS(=O)(=O)c1ccc(NC(=O)c2cccc3cc4ccccc4nc23)cc1
2. COc1ccc2c(c1)/C(=C/c1cc(OC)c(OC)c(OC)c1)C(=O)N2C
3. CCOC(=O)Nc1nc2c(C)cccc2s1
4. CC(NC(C#N)CC12CC3CC(CC(C3)C1)C2)c1ccccc1 (centres undefined)

[reply]
["> 100 µM", "5.92 µM", "54.8 µM", "> 100 µM"]

Need TGI for each of these compounds.
1. Cc1ccc(Sc2sc(-c3ccccc3)nc2[P+](c2ccccc2)(c2ccccc2)c2ccccc2)cc1
2. NC1CCC(N[C@@H]2C[C@H]2c2ccccc2)CC1 (some centres undefined)

[reply]
1. 0.568 µM
2. > 100 µM

Need TGI for each of these compounds.
1. COC(=O)c1ccccc1C1CN=NC12Cc1cccc(C)c1C2=O (centres undefined)
2. O=c1c2ccccc2nc(-c2cccc(Cl)c2)n1NCC1(O)OCC(O)C(O)C1O (centres undefined)

[reply]
1. > 100 µM
2. > 100 µM

###

tested on: CCRF-CEM leukemia; assay: NCI tumour cell line growth inhibition, 48 h
Measured Parameter: TGI

Answered examples (2):
• NS(=O)(=O)c1ccc(NC(=O)c2cccc3cc4ccccc4nc23)cc1 = > 100 µM
• c1ccc2nc(CCC3CCCCN3)ccc2c1 (stereo not drawn) = > 100 µM

Moving on to the next compound.
[ask] What measured TGI goes with OCC(O)C(O)C(O)/C=N/Nc1nc2ccccc2nc1-c1ccccc1 (stereo not drawn) ?
[reply] > 100 µM
